- test system: Macaca fascicularis PRLR (mfPRLR.mmh; SEQ ID NO:403)
- Sequence (as listed by the source): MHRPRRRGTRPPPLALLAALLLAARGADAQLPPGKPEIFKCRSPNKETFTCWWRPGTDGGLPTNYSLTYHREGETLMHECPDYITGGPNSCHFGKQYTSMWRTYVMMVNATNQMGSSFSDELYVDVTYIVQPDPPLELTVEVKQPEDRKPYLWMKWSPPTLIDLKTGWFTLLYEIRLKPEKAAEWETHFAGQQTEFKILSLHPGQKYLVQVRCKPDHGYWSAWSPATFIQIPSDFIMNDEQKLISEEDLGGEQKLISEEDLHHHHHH
- assay explanation: Surface plasmon resonance (Biacore T200), antibody-capture format
- Type: binding
- test settings: 25° C., analyte mfPRLR.mmh
kd reference
Respond with the figure and its unit, in that order.

Examples with answers:
molecule: H1H6795P: fully human anti-PRLR antibody, human IgG1 Fc; HCVR/LCVR SEQ ID NOs 162/170 (antibody, V domains shown) VH: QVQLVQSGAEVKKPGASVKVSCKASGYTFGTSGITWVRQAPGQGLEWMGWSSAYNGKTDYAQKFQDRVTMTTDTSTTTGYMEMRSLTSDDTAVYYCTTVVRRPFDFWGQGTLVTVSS VL: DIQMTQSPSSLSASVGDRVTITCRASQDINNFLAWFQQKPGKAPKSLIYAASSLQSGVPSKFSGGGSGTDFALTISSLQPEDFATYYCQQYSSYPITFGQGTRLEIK
kd: 0.00197 s⁻¹
//
molecule: H1H6967N: anti-PRLR antibody, human IgG1 Fc form of H2M6967N of Table 1; HCVR/LCVR SEQ ID NOs 354/362 (antibody, V domains shown, human IgG1 Fc) VH: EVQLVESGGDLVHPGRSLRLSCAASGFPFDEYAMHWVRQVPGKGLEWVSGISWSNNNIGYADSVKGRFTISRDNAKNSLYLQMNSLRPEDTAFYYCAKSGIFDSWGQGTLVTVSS VL: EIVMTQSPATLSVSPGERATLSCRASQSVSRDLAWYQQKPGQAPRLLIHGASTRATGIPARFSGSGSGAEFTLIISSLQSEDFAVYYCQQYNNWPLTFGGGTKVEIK
kd: 0.000585 s⁻¹
//
molecule: H1H6804P: fully human anti-PRLR antibody, human IgG1 Fc; HCVR/LCVR SEQ ID NOs 242/250 (antibody, V domains shown) VH: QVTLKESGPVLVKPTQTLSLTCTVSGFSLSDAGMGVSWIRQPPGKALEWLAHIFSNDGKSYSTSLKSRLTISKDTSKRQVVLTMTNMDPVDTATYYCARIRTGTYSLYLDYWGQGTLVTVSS VL: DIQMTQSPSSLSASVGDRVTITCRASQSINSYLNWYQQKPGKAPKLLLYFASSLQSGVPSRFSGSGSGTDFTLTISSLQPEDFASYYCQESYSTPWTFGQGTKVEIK
kd: 0.000657 s⁻¹

Now examine the next entry.
## Task Name the recorded kd for H1H6797P: fully human anti-PRLR antibody, human IgG1 Fc; HCVR/LCVR SEQ ID NOs 178/186 (antibody, V domains shown) VH: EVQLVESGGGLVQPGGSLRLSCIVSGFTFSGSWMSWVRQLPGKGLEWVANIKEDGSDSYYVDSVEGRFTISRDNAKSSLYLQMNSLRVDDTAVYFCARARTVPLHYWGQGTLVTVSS VL: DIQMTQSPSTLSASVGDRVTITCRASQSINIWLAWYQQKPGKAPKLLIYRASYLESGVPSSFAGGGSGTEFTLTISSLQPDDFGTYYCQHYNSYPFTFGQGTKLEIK .
## Result 0.00209 s⁻¹

Cited source for all entries: patent US10925971B2
